target: recombinant rat L-type calcium channel (LTCC) subunits (α1c, α2δ, and β1) (Rattus norvegicus); construct: pcDNA6.2DEST α1c, pcDNA3.2DEST β1, pcDNA3.1-Zeo α2δ); experiment: FLIPR calcium mobilization assay for L-type calcium channel; conditions: calcium mobilization in vitro assay; HEK293 cells stably expressing LTCC, 90 mM KCl
Sequence (P22002 whole entry): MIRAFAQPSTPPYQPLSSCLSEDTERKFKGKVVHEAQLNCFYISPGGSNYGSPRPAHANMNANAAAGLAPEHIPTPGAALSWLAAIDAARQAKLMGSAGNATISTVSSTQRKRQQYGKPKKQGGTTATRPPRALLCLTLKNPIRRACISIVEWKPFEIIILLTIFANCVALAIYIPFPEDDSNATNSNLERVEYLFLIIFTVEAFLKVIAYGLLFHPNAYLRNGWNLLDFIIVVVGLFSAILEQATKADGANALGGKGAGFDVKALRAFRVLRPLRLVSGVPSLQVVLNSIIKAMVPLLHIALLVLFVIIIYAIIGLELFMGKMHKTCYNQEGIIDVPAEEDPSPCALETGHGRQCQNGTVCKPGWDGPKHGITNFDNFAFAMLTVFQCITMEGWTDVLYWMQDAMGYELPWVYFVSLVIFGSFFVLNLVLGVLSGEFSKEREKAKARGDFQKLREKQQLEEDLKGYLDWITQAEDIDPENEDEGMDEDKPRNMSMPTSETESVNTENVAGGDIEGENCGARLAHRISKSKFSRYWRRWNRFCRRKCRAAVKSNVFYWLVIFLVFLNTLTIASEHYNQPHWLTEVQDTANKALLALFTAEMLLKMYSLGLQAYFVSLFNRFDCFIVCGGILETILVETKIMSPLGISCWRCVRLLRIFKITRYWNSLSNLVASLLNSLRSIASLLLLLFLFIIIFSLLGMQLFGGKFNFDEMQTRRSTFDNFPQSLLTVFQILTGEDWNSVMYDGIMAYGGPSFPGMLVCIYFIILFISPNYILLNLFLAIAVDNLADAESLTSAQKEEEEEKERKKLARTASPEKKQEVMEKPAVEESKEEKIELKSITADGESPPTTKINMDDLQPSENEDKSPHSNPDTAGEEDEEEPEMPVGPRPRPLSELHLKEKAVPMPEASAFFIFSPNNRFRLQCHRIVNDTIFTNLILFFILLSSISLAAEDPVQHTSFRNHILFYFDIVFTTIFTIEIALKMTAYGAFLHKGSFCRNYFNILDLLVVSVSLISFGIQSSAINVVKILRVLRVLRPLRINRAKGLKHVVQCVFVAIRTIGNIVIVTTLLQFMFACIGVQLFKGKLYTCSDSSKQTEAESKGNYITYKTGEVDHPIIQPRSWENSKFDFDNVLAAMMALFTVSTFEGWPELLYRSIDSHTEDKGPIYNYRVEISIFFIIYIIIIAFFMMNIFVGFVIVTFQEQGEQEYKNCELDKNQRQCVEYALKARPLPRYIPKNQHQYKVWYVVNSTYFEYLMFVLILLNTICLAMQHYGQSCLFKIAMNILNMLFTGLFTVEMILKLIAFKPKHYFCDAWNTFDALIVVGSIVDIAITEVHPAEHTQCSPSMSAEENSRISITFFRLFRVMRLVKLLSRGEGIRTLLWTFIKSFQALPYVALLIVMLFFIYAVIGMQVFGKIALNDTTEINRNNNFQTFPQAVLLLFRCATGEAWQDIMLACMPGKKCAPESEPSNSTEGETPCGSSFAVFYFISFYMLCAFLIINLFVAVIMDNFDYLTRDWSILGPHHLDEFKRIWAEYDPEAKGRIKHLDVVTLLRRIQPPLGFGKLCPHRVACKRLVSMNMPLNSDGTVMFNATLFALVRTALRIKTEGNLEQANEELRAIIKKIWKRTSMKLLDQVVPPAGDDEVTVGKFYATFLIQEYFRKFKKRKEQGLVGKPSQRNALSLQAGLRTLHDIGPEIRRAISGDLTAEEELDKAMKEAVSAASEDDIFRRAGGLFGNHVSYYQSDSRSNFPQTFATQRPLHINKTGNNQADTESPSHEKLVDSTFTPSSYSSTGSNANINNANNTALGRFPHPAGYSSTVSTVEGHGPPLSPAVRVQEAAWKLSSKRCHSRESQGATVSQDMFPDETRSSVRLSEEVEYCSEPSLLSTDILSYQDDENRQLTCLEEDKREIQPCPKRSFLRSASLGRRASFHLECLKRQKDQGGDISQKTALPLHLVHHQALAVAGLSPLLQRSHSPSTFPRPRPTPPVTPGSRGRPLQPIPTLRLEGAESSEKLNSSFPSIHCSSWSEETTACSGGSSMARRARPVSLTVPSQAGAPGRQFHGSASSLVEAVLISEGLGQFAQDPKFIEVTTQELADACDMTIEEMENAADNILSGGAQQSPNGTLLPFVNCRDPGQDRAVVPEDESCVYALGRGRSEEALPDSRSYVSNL
Sequence (P54290 25-944 partner): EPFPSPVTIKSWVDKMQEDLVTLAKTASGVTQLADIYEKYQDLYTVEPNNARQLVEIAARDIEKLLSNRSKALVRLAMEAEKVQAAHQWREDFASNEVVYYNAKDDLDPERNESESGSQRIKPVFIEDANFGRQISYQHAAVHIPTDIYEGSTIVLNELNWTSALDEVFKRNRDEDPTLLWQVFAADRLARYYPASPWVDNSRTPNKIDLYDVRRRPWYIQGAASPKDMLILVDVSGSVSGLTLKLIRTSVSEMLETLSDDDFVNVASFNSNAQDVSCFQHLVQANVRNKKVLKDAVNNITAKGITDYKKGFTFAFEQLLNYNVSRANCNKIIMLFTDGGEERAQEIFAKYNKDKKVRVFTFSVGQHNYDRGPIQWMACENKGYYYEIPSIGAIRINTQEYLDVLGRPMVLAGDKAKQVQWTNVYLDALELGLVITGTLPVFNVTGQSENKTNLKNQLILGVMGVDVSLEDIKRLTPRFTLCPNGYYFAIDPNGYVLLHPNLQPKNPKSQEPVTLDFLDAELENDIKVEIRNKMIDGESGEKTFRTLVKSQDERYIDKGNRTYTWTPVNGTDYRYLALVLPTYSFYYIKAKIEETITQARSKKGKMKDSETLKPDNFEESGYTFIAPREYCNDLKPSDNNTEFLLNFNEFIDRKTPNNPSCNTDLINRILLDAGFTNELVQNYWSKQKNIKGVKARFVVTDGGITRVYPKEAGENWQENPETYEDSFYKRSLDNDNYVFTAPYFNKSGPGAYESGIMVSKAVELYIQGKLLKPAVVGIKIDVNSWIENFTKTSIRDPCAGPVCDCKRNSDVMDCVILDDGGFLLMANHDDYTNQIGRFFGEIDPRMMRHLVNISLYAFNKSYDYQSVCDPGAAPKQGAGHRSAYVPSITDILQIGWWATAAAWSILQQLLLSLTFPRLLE
Sequence (P54290 945-1091 partner): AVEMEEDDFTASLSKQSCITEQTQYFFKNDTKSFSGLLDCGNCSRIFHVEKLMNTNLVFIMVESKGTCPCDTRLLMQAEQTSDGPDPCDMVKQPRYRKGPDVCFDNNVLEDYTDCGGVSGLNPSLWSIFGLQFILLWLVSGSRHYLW
Sequence (P54283 whole entry partner): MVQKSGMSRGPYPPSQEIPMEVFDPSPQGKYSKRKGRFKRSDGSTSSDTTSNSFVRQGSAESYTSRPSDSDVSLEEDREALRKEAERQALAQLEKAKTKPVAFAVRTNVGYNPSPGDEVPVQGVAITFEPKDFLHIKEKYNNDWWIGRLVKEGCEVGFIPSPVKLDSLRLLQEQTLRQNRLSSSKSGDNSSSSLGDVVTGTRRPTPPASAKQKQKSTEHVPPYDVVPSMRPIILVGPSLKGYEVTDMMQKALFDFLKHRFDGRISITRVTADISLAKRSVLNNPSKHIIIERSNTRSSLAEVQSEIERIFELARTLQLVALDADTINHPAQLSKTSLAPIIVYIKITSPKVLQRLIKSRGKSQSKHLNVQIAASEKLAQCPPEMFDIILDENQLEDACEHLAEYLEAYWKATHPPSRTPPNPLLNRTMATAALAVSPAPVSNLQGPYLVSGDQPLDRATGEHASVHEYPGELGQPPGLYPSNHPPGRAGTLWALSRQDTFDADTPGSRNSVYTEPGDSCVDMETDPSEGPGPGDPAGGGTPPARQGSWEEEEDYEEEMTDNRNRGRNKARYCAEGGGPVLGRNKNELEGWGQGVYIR
READOUT KIND: IC50 (µM)
Your answer should be a plain number; it is taken to be in µM.

Note down IC50 recorded for CCN[C@@H](CC(C)C)C(=O)N1CCCC(N(C2CC2)S(=O)(=O)c2cccc(C(F)(F)F)c2)C1 (stereo partly drawn)
5.07

Identify the reported IC50 for the following entry. COc1ccc(CNCC(=O)N2CCCC(N(C3CC3)S(=O)(=O)c3cccc(C(F)(F)F)c3)C2)cc1 (stereo not drawn)
4.65

Dear colleague, please send me the reported IC50 for O=C(CN1CCCC(N(C2CC2)S(=O)(=O)c2cccc(C(F)(F)F)c2)C1)Nc1ccc(F)cc1 (stereo not drawn) when you can.
6.18

Answer with reported IC50 of CC(C)C[C@H](N)C(=O)N1CCCC(N(C2CC2)S(=O)(=O)c2cccc(C(F)(F)F)c2)C1 (stereo partly drawn)
6.58

Look up IC50 of CC(C)CNC(=O)CN1CCCC(N(C2CC2)S(=O)(=O)c2cccc(C(F)(F)F)c2)C1 (stereo not drawn) and report it.
9.82

Name the recorded IC50 of the item CC(C)CNCCC(=O)N1CCCC(N(C2CC2)S(=O)(=O)c2cccc(C(F)(F)F)c2)C1 (stereo not drawn) in your answer.
5.63

Tell me IC50 reported for CC(C)C[C@H](N)CC(=O)N1CCCC(N(C2CC2)S(=O)(=O)c2cccc(C(F)(F)F)c2)C1 (stereo partly drawn)
0.5

Report IC50, nothing else, for this compound: CC(C)CNCC(=O)N1CCCC(N(C2CC2)S(=O)(=O)c2cccc(C(F)(F)F)c2)C1 (stereo not drawn)
5.75

Look up and report measured IC50 for this entry: CN[C@@H](CC(C)C)C(=O)N1CCCC(N(C2CC2)S(=O)(=O)c2cccc(C(F)(F)F)c2)C1 (stereo partly drawn)
6.58

Input CC(C)NCCC(=O)N1CCCC(N(C2CC2)S(=O)(=O)c2cccc(C(F)(F)F)c2)C1 (stereo not drawn) , output reported IC50.
8.77

* * *

target: N-type calcium channel (NTCC) (Homo sapiens, UniProt Q00975); construct: endogenous in cells; experiment: FLIPR calcium mobilization assay for N-type calcium channel; details: calcium mobilization in vitro assay; differentiated IMR32 cells, 90 mM KCl, 5 μM nitrendipine
pIC50: −log10 of the molar value.
Label rule, in plain words: pIC50 of 6 and up is met, under 6 is not met.

Answer whether pIC50 of CC(C)CCN[C@@H](CC(C)C)C(=O)N1CCCC(N(C2CC2)S(=O)(=O)c2cccc(C(F)(F)F)c2)C1 (some centres unmarked) is greater than or equal to 6.
met

For this compound, is measured pIC50 6 or higher? CN[C@@H](CC(C)C)C(=O)N1CCCC(N(C2CC2)S(=O)(=O)c2cccc(C(F)(F)F)c2)C1 (some centres unmarked)
met

Dear colleague, could you confirm whether CC(C)C[C@H](N)CC(=O)N1CCCC(N(C2CC2)S(=O)(=O)c2cccc(C(F)(F)F)c2)C1 (some centres unmarked) has pIC50 at or above 6?
met

# bool: pIC50 of CC(C)CNC(=O)CN1CCCC(N(C2CC2)S(=O)(=O)c2cccc(C(F)(F)F)c2)C1 (centres unmarked) >= 6
met

Please tell me: is the compound O=C(CN1CCCC(N(C2CC2)S(=O)(=O)c2cccc(C(F)(F)F)c2)C1)Nc1ccc(F)cc1 (centres unmarked) at or over 6 in terms of pIC50?
met

Assess whether reported pIC50 for O=C(CCNCCO)N1CCCC(N(C2CC2)S(=O)(=O)c2cccc(C(F)(F)F)c2)C1 (centres unmarked) sits at 6 or higher.
not met

Quick check: does O=C(CN1CCC(NS(=O)(=O)c2cccc(C(F)(F)F)c2)C1)Nc1ccc(F)cc1 (centres unmarked) have pIC50 greater than or equal to 6?
not met

Given the entry CCN[C@@H](CC(C)C)C(=O)N1CCCC(N(C2CC2)S(=O)(=O)c2cccc(C(F)(F)F)c2)C1 (some centres unmarked) , answer whether its pIC50 meets or surpasses 6.
met

Item CC(C)NCCC(=O)N1CCCC(N(C2CC2)S(=O)(=O)c2cccc(C(F)(F)F)c2)C1 (centres unmarked) with pIC50 of 6 or above?
met

Could you tell me if the measured pIC50 of COc1ccc(CNCC(=O)N2CCCC(N(C3CC3)S(=O)(=O)c3cccc(C(F)(F)F)c3)C2)cc1 (centres unmarked) reaches 6 or more?
met

# bool: pIC50 of CC(C)C[C@H](NC(C)C)C(=O)N1CCCC(N(C2CC2)S(=O)(=O)c2cccc(C(F)(F)F)c2)C1 (some centres unmarked) >= 6
met

Check the entry O=S(=O)(c1cccc(C(F)(F)F)c1)N(C1CC1)C1CCCN(CCCN(c2ccc(F)cc2)c2ccc(F)cc2)C1 (centres unmarked) : does pIC50 equal or exceed 6?
not met
